Recorded values, source patent US12421243B2.

Biological target: recombinant human non-muscle myosin 2 NM2C (Homo sapiens, UniProt Q7Z406)
Sequence (Q7Z406 whole entry): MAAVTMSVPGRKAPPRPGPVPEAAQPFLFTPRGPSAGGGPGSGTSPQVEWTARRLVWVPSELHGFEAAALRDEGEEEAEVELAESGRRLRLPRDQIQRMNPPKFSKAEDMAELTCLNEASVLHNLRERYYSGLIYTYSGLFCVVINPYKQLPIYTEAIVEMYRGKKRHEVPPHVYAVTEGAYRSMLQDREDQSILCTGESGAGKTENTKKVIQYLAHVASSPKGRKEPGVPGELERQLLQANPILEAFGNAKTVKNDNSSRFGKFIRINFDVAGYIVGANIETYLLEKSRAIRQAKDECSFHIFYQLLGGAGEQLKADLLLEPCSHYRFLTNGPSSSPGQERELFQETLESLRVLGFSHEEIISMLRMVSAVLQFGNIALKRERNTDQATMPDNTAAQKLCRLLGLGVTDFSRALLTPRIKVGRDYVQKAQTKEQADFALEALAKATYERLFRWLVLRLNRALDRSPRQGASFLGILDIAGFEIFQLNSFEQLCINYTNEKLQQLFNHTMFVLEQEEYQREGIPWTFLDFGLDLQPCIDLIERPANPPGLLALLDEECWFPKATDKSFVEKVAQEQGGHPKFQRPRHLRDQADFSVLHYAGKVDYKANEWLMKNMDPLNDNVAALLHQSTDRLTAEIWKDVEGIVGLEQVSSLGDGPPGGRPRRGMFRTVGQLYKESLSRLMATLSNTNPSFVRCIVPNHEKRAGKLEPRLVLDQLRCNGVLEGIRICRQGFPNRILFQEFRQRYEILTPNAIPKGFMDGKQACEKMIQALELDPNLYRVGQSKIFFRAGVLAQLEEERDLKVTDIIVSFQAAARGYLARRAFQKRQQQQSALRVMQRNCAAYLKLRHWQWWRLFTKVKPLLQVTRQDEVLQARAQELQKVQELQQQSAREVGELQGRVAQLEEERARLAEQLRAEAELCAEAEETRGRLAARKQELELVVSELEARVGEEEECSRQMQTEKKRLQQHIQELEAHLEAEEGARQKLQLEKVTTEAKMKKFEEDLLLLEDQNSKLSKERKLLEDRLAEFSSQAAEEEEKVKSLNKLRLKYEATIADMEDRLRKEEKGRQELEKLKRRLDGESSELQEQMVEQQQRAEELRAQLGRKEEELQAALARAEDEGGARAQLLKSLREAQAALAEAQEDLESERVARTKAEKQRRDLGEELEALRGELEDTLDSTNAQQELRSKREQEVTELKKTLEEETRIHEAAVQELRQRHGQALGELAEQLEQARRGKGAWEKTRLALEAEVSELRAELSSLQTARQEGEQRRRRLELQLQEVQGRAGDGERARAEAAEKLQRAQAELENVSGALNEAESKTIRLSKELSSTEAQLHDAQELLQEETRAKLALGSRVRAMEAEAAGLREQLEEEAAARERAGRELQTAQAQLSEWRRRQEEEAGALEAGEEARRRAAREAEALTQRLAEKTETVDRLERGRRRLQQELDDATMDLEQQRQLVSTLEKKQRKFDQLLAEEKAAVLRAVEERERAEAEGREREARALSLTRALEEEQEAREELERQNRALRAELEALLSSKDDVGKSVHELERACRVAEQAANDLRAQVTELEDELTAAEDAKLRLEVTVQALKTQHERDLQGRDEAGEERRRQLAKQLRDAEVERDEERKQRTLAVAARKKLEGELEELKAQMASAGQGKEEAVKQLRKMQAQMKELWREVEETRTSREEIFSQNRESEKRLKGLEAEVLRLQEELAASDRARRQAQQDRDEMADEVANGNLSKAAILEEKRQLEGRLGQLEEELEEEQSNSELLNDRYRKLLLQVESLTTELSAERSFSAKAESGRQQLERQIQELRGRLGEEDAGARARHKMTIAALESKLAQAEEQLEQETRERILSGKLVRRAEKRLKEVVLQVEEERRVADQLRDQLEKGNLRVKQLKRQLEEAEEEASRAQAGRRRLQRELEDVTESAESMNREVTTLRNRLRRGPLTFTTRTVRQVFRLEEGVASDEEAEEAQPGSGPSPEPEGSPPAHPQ
Assay: actomyosin steady state ATPase measurement, NM2C
Format: biochemical
Details: maximum value of inhibition of ATPase activity
Property: % inhibition. complete NM2C; scope: individual compounds
Quick note: unit goes after the number.

Below are worked cases with known answers.
COc1ccc(N2CC[C@@]3(O)C(=O)c4ccsc4N=C23)cc1 :: 70%
CC(=O)c1ccc(N2CCC3(O)C(=O)c4cc(C)sc4N=C23)cc1 (stereo not drawn) :: 78%
COc1ccc(N2CCC3(O)C(=O)c4cc(C)sc4N=C23)cn1 (stereo not drawn) :: 93%
Cc1cc2c(s1)N=C1N(c3ccccc3)CCC1(O)C2=O (stereo not drawn) :: 100%

Exercise: Which value of % inhibition. complete NM2C has been reported for `Nc1ccc(N2CC[C@@]3(O)C(=O)c4ccsc4N=C23)cc1` in the records?
Key: 41%

Exercise: Which value of % inhibition. complete NM2C has been reported for `COc1ccc(N2CC[C@@]3(O)C(=O)c4ccsc4N=C23)cn1` in the records?
Key: 21%

Exercise: Which value of % inhibition. complete NM2C has been reported for `O=C1c2ccsc2N=C2N(c3ccc(CO)cc3)CC[C@@]12O` in the records?
Key: 75%

Exercise: Which value of % inhibition. complete NM2C has been reported for Cc1cc2c(s1)N=C1N(c3ccc(CC#N)cc3)CCC1(O)C2=O (stereo not drawn) in the records?
Key: 92%

Exercise: Which value of % inhibition. complete NM2C has been reported for COc1ccc(N2CCC3(O)C(=O)c4cc(C)sc4N=C23)cc1 (stereo not drawn) in the records?
Key: 91%

Exercise: Which value of % inhibition. complete NM2C has been reported for `O=C1c2ccsc2N=C2N(c3cccs3)CC[C@@]12O` in the records?
Key: 20%

Exercise: Which value of % inhibition. complete NM2C has been reported for Cc1cc2c(s1)N=C1N(c3ccc(N4CCOCC4)cc3)CCC1(O)C2=O (stereo not drawn) in the records?
Key: 24%

Exercise: Which value of % inhibition. complete NM2C has been reported for O=C1c2sccc2N=C2N(c3ccccc3)CCC12O (stereo not drawn) in the records?
Key: 83%

Exercise: Which value of % inhibition. complete NM2C has been reported for Cc1cc2c(s1)N=C1N(c3ccc(N)cc3)CCC1(O)C2=O (stereo not drawn) in the records?
Key: 61%

Exercise: Which value of % inhibition. complete NM2C has been reported for `Cc1ccc(N2CC[C@@]3(O)C(=O)c4ccsc4N=C23)cc1` in the records?
Key: 72%

Exercise: Which value of % inhibition. complete NM2C has been reported for `Cc1cc2c(s1)N=C1N(c3cccs3)CC[C@@]1(O)C2=O` in the records?
Key: 69%

Exercise: Which value of % inhibition. complete NM2C has been reported for O=C1c2ccsc2N=C2N(c3ccccc3)CCC12O (stereo not drawn) in the records?
Key: 60%

Exercise: Which value of % inhibition. complete NM2C has been reported for Cc1cc2c(s1)N=C1N(c3cccs3)CCC1(O)C2=O (stereo not drawn) in the records?
Key: 100%

====

Assay: tissue concentrations after intraperitoneal injection into a live rat
Type: in vivo
Details: kidney, ip, 6 mg i.p., 45 min, read-out: Concentration of compound 188 in tissue samples (μM) kidney
MEASURED PARAMETER: concentration at 45 min (µM)
The figure you give is taken to be in µM; do not add the unit.

Exercise: Which value of concentration at 45 min has been reported for O=C1c2ccsc2N=C2N(c3ccc(N4CCOCC4)cc3)CCC12O (stereo not shown) in the records?
Key: 12
